The origin of these recorded values is patent US20260226068A1.

The compounds listed here are annotated with their pIC50.
Target: IL-17A/F (Homo sapiens, UniProt Q16552+Q96PD4)
Sequence (Q16552 24-155): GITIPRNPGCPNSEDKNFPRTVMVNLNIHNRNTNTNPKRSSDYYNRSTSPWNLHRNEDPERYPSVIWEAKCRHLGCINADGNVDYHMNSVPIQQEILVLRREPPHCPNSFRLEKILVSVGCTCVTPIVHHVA
Sequence (Q96PD4 31-163): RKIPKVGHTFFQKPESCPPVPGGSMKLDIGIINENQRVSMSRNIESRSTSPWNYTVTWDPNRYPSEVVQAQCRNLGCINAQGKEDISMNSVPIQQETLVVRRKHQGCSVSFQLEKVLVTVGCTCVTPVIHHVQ
Experiment: IL-17A/F HEK-Blue cell assay (SEAP reporter)
Conditions: HEK-Blue IL-17A reporter cells, IL17A/F 5 ng/mL, 20 hours, SEAP read at A630; read-out: HEK-Blue IL17AF (IC50 for IL-17A/F inhibition)
pIC50: −log10 of the molar value.
quantity_kind: pIC50

[[record]]
compound = "O=C(N[C@H](c1cn2nc(C[C@H]3C[C@@H](C(F)(F)F)CNC3=O)c(C3CCOCC3)nc2n1)C1CCC(F)(F)CC1)c1ccnn1CC(F)(F)F"
quantity_kind = "pIC50"
result = "6.00 to 7.00"

[[record]]
compound = "CCn1nccc1C(=O)N[C@H](c1cn2nc(C[C@H]3C[C@@H](C(F)(F)F)CNC3=O)c(C3COCCN3)nc2n1)C1CCC(F)(F)CC1 (stereo partly shown)"
quantity_kind = "pIC50"
result = "< 6.00"

[[record]]
compound = "CCn1nccc1C(=O)N[C@H](c1cn2nc(C[C@H]3C[C@@H](C(F)(F)F)CNC3=O)c(N3CCO[C@H](C)C3)nc2n1)[C@H]1CC[C@H](C)CC1"
quantity_kind = "pIC50"
result = "> 7.00"

[[record]]
compound = "CC(C)n1nccc1C(=O)N[C@H](c1cn2nc(CC3C[C@H](C(F)(F)F)CNC3=O)cnc2n1)C1CCC(F)(F)CC1 (stereo partly shown)"
quantity_kind = "pIC50"
result = "< 6.00"


###

Molecular target: IL-17A/F (Homo sapiens, UniProt Q16552+Q96PD4)
Construct: purchased R&D Systems
Assay: IL-17A/F HEK-Blue cell assay (SEAP reporter)
Format: cell-based
Conditions: HEK-Blue IL-17A reporter cells, IL17A/F 5 ng/mL, 20 hours, SEAP read at A630; read-out: HEK-Blue IL17AF (IC50 for IL-17A/F inhibition)
Parameter IC50: see the listing below.
quantity_kind: IC50

[[record]]
molecule = "CCn1nccc1C(=O)N[C@H](c1cn2nc(C[C@H]3C[C@@H](C(F)(F)F)CNC3=O)c(CN3CCN(C)CC3)nc2n1)C1CCC(F)(F)CC1"
subject_of_test = "IL-17A/F (Homo sapiens, UniProt Q16552+Q96PD4)"
result = "> 1 µM"

[[record]]
molecule = "CCn1nccc1C(=O)N[C@H](c1cn2nc(C[C@H]3C[C@@H](C(F)(F)F)CNC3=O)c(C(C)C(F)(F)F)nc2n1)C1CCC(F)(F)CC1 (single isomer, unassigned) [Compound 175]"
subject_of_test = "IL-17A/F (Homo sapiens, UniProt Q16552+Q96PD4)"
result = "0.1 to 1 µM"

[[record]]
molecule = "CCn1nccc1C(=O)N[C@H](c1cn2nc(CN3C[C@@H](C(F)(F)F)NC3=O)c(C3CCOCC3)nc2n1)C1CCC(F)(F)CC1"
subject_of_test = "IL-17A/F (Homo sapiens, UniProt Q16552+Q96PD4)"
result = "> 1 µM"

[[record]]
molecule = "CCn1ncnc1C(=O)N[C@H](c1cn2nc(C[C@H]3C[C@@H](C(F)(F)F)CNC3=O)c(C3CCOCC3)nc2n1)[C@H]1CC[C@H](C)CC1"
subject_of_test = "IL-17A/F (Homo sapiens, UniProt Q16552+Q96PD4)"
result = "0.1 to 1 µM"

[[record]]
molecule = "CCn1nccc1C(=O)N[C@H](c1cn2nc(C[C@H]3C[C@@H](C(F)(F)F)CNC3=O)c(CNCC(F)(F)F)nc2n1)C1CCC(F)(F)CC1"
subject_of_test = "IL-17A/F (Homo sapiens, UniProt Q16552+Q96PD4)"
result = "0.1 to 1 µM"

[[record]]
molecule = "CCn1nccc1C(=O)N[C@H](c1cn2nc(CC3C[C@@H](C(F)(F)F)CNC3=O)c(N3CCOCC3)nc2n1)C(C1CC1)C1CC1 (single isomer, unassigned) [Compound 111]"
subject_of_test = "IL-17A/F (Homo sapiens, UniProt Q16552+Q96PD4)"
result = "0.1 to 1 µM"


###

Molecular target: IL-17A/F (Homo sapiens, UniProt Q16552+Q96PD4)
Sequence (Q16552 24-155): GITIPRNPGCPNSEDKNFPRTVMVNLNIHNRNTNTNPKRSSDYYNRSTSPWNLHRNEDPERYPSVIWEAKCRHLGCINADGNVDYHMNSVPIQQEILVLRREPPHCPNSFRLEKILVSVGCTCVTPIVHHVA
Sequence (Q96PD4 31-163): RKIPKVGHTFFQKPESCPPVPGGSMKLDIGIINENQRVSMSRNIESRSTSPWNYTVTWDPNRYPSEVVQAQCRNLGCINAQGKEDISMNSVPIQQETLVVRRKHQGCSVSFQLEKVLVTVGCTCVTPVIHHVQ
Experiment: IL-17A/F HEK-Blue cell assay (SEAP reporter)
Conditions: HEK-Blue IL-17A reporter cells, IL17A/F 5 ng/mL, 20 hours, SEAP read at A630; read-out: HEK-Blue IL17AF (IC50 for IL-17A/F inhibition)
pIC50: −log10 of the molar value.
The following compounds are listed with their measured pIC50 values.
quantity_kind: pIC50

[[record]]
compound = "CCn1nccc1C(=O)N[C@H](c1cn2nc(C[C@H]3C[C@@H](C(F)(F)F)CNC3=O)c(N3CCN4CCC[C@@H]4C3)nc2n1)C1CCC(F)(F)CC1"
result = "6.00 to 7.00"

[[record]]
compound = "CCn1nccc1C(=O)N[C@H](c1cn2nc(C[C@H]3C[C@@H](C(F)(F)F)CNC3=O)c(N3CCO[C@@H](C)C3)nc2n1)C1CCC(F)(F)CC1"
result = "6.00 to 7.00"

[[record]]
compound = "O=C(N[C@H](c1cn2nc(C[C@H]3C[C@@H](C(F)(F)F)CNC3=O)c(C3CCCOC3)nc2n1)[C@H]1CCCC(F)(F)C1)c1nonc1C1CC1 (single isomer, unassigned) [Compound 126]"
result = "6.00 to 7.00"

[[record]]
compound = "CCn1nccc1C(=O)N[C@H](c1cn2nc(C[C@H]3C[C@@H](C(F)(F)F)CNC3=O)c(C3(C)CCCOC3)nc2n1)C1CCC(F)(F)CC1 (single isomer, unassigned) [Compound 177]"
result = "6.00 to 7.00"

[[record]]
compound = "CCn1nccc1C(=O)N[C@H](c1cn2nc(C[C@H]3C[C@@H](C(F)(F)F)CNC3=O)c(C3CCCCN3C)nc2n1)C1CCC(F)(F)CC1 (stereo partly shown)"
result = "< 6.00"

[[record]]
compound = "CCn1nccc1C(=O)N[C@H](c1cn2nc(C[C@H]3C[C@@H](C(F)(F)F)CNC3=O)c(C3CCN(C)CC3)nc2n1)C1CCC(F)(F)CC1"
result = "< 6.00"

[[record]]
compound = "O=C(N[C@H](c1cn2nc(C[C@H]3C[C@@H](C(F)(F)F)CNC3=O)c(C3CCOC3)nc2n1)C1CCC(F)(F)CC1)c1nonc1C1CC1 (single isomer, unassigned) [Compound 134]"
result = "< 6.00"

[[record]]
compound = "CCc1nonc1C(=O)N[C@H](c1cn2nc(CC3C[C@@H](C(F)(F)F)CNC3=O)cnc2n1)C1CCC(F)(F)CC1 (stereo partly shown)"
result = "< 6.00"

[[record]]
compound = "CC(C)n1nccc1C(=O)N[C@H](c1cn2nc(C[C@H]3C[C@@H](C(F)(F)F)CNC3=O)c(C3CCOCC3)nc2n1)[C@H]1CCCC(F)(F)C1"
result = "> 7.00"

[[record]]
compound = "CCn1ncnc1C(=O)N[C@H](c1cn2nc(C[C@H]3C[C@@H](C(F)(F)F)CNC3=O)c(C3CCOCC3)nc2n1)C1CCCC(F)(F)C1 (stereo in doubt)"
result = "< 6.00"

[[record]]
compound = "CC(F)(F)c1nocc1C(=O)N[C@H](c1cn2nc(C[C@H]3C[C@@H](C(F)(F)F)CNC3=O)c(C3CCOCC3)nc2n1)C1CCC(F)(F)CC1"
result = "6.00 to 7.00"

[[record]]
compound = "C[C@@H]1CN(c2nc3nc([C@@H](NC(=O)c4ccnn4C)[C@@H]4CCCC(F)(F)C4)cn3nc2C[C@H]2C[C@H](C(F)(F)F)CNC2=O)CCO1"
result = "6.00 to 7.00"

[[record]]
compound = "CCn1nccc1C(=O)N[C@H](c1cn2nc(C[C@H]3C[C@@H](C(F)(F)F)CNC3=O)c(N3CCN(C(C)(C)C)CC3)nc2n1)C1CCC(F)(F)CC1"
result = "6.00 to 7.00"

